// provenance: paper PMC5706701

Here the recorded Z-score is given for each entry.
# testedSystem: Human IP6K1 (Homo sapiens)
# Construct: GST (N, cleaved yes); made in house; host or cells: C43 E. coli, pGEX-6P-2
# Sequence (Q92551 whole entry): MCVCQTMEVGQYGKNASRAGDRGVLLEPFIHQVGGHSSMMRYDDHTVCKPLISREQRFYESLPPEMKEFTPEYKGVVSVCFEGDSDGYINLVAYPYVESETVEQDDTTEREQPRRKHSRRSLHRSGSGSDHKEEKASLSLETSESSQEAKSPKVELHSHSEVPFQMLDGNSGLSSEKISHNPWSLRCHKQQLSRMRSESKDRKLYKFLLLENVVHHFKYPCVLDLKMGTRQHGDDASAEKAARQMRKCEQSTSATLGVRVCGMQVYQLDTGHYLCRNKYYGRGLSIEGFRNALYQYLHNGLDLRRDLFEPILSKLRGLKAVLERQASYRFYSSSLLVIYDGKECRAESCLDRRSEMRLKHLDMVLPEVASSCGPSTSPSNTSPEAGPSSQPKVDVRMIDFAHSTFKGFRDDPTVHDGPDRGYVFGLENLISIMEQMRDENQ
# assayExplanation: IP6K1 high-throughput screen of the Sigma LOPAC (ADP-Glo Max, single point);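 note: final compound concentration 10µM in 5% DMSO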
# Format: biochemical
# reportedConditions: LOPAC single-point screen; Z-score from raw signal with plate average and StDev
Enter the number alone.

State its Z-score for this compound: CN(C)CCCCSC(=N)N.Cl.Cl [SKF 91488 dihydrochloride]
-0.1191

State its Z-score for this compound: CC(=O)O.NC(=NCCC[C@H](N)C(=O)O)NO [NG-Hydroxy-L-arginine acetate]
-0.2451

State its Z-score for this compound: COc1cc(CNC(=O)CCCCCCC(C)C)ccc1O [Dihydrocapsaicin]
-0.2447
